The measured values listed here are drawn from patent US11427548B2.

# TARGET_ENTITY: Androgen Receptor (Homo sapiens)
# Construct: endogenous in cells; host or cells: VCaP cells
# TEST_SUMMARY: Androgen Receptor ELISA assay (PathScan AR ELISA) in VCaP cells: AR degradation, Dmax and DC50
# Format: cell-based
# APPLIED_CONDITIONS: read-out: VCaP DC50; VCaP cells; Table 36
Some molecules, each annotated with its measured DC50.

Some solved cases for reference:
Requested read-out: DC50. Entry: `Cc1ncsc1-c1ccc([C@H](C)NC(=O)[C@@H]2C[C@@H](O)CN2C(=O)[C@@H](NC(=O)CCCN(C)[C@H](C(=O)N[C@H](C(=O)N(C)CCOc2ccc(N3C(=S)N(c4ccc(C#N)c(C(F)(F)F)c4)C(=O)C3(C)C)cc2)C(C)C)C(C)C)C(C)(C)C)cc1`
> 0.501 µM

Find the recorded DC50 belonging to `Cc1ncsc1-c1ccc([C@H](C)NC(=O)[C@@H]2C[C@@H](O)CN2C(=O)[C@@H](NC(=O)COCCN2C[C@@H]3C[C@H]2CN3c2ccc(C(=O)N[C@H]3C(C)(C)[C@H](Oc4ccc(C#N)c(Cl)c4)C3(C)C)cn2)C(C)(C)C)cc1` and report it.
< 0.05 µM

***
What does the data say about its DC50? Entry: Cc1ncsc1-c1ccc([C@H](C)NC(=O)[C@@H]2C[C@@H](O)CN2C(=O)C(C(C)C)n2cnc(CCCCOCCCCCOc3ccc(N4C(=S)N(c5ccc(C#N)c(C(F)(F)F)c5)C(=O)C4(C)C)cc3)c2)cc1 (stereo partly drawn)
> 0.501 µM

###

# TARGET_ENTITY: Androgen Receptor (Homo sapiens)
# Construct: endogenous in cells; host or cells: VCaP cells
# TEST_SUMMARY: Androgen Receptor ELISA assay (PathScan AR ELISA) in VCaP cells: AR degradation, Dmax and DC50
# Assay type: cell-based
# APPLIED_CONDITIONS: VCaP cells; Table 36; read-out: VCaP DC50
This section presents compounds with their documented DC50 values.

These recorded examples may help you get a feel for the data.
Item `Cc1ncsc1-c1ccc([C@H](C)NC(=O)[C@@H]2C[C@@H](O)CN2C(=O)[C@@H](NC(=O)COCCCCCNc2ccc(C(=O)N[C@H]3C(C)(C)[C@H](Oc4ccc(C#N)c(Cl)c4)C3(C)C)nc2)C(C)C)cc1` with Androgen Receptor (Homo sapiens) - DC50?
> 501 nM

Androgen Receptor (Homo sapiens) / DC50 / Cc1ncsc1-c1ccc([C@H](C)NC(=O)C2C[C@@H](O)CN2C(=O)C(NC(=O)CN2CCN(CCN3CCN(c4ccc(C(=O)N[C@H]5C(C)(C)[C@H](Oc6ccc(C#N)c(Cl)c6)C5(C)C)cn4)CC3)CC2)C(C)(C)C)cc1 (stereo partly drawn) : value?
< 50 nM

Give the reported DC50 for `CC(C)C[C@H](OCCN1CCN(c2ccc(C(=O)N[C@H]3C(C)(C)[C@H](Oc4ccc(C#N)c(Cl)c4)C3(C)C)cn2)CC1)C(=O)N[C@@H](C)C(=O)N1C[C@H](O)C[C@H]1C(=O)NCc1ccc(Cl)cc1` (system: Androgen Receptor (Homo sapiens)).
> 501 nM

---
Checklist item: DC50 tested on Androgen Receptor (Homo sapiens), entry `Cc1ncsc1-c1ccc([C@H](C)NC(=O)[C@@H]2C[C@@H](O)CN2C(=O)[C@@H](NC(=O)CO[C@H]2C[C@@H](N3CCN(c4ccc(C(=O)N[C@H]5C(C)(C)[C@H](Oc6ccc(C#N)c(Cl)c6)C5(C)C)cn4)CC3)C2)C(C)(C)C)cc1` , value?
< 50 nM

GET /values?readout=DC50&system=Androgen Receptor (Homo sapiens)&item= `Cc1ncsc1-c1ccc([C@H](C)NC(=O)[C@@H]2C[C@@H](O)CN2C(=O)[C@@H](NC(=O)CCCCCCCCCc2ccc(C(=O)N[C@H]3C(C)(C)[C@H](Oc4ccc(C#N)c(Cl)c4)C3(C)C)cc2)C(C)(C)C)cc1`
51 to 500 nM

For the record Cc1ncsc1-c1ccc(C(C)NC(=O)[C@@H]2C[C@@H](O)CN2C(=O)[C@@H](N)[C@@H](C)OCCCN(C)CCc2ccc(C(=O)N[C@H]3C(C)(C)[C@H](Oc4ccc(C#N)c(Cl)c4)C3(C)C)cc2)cc1 (stereo partly drawn) , what value of DC50 is listed for Androgen Receptor (Homo sapiens)?
> 501 nM

###

# TARGET_ENTITY: Androgen Receptor (Homo sapiens, UniProt P10275)
# Construct: endogenous in cells; host or cells: VCaP cells
# Sequence (P10275 whole entry): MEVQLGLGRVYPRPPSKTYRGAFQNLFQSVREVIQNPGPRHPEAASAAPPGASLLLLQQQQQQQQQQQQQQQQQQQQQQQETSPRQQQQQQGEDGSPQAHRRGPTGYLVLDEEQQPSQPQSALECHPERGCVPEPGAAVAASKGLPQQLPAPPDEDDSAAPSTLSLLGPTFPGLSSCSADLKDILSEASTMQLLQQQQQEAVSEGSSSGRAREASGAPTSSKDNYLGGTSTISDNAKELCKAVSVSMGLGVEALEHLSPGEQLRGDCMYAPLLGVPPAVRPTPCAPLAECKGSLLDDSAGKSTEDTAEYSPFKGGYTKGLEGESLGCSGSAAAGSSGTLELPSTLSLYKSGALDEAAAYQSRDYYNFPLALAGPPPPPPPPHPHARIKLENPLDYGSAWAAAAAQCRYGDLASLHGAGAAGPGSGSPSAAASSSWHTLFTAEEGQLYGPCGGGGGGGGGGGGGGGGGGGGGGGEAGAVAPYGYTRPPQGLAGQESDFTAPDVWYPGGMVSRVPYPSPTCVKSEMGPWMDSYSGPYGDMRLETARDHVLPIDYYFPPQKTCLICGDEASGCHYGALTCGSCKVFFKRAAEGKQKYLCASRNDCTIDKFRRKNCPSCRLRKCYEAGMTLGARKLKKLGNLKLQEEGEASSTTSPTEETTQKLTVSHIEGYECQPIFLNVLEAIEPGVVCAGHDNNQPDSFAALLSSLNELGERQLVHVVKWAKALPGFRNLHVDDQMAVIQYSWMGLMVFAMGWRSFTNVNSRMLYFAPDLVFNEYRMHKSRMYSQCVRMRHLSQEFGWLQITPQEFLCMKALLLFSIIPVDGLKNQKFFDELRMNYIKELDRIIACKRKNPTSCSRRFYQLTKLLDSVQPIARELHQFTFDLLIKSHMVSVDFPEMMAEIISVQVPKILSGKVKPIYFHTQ
# TEST_SUMMARY: Androgen Receptor ELISA assay (PathScan AR ELISA) in VCaP cells: AR degradation, Dmax and DC50
# Type: cell-based
# APPLIED_CONDITIONS: VCaP cells; Table 36; read-out: VCaP DC50
READOUT_NAME: DC50

Recorded DC50, per entry:
Recorded DC50 of Cc1ncsc1-c1ccc([C@H](C)NC(=O)[C@@H]2C[C@@H](O)CN2C(=O)C(NC(=O)CCCCCc2ccc(C(=O)N[C@H]3C(C)(C)[C@H](Oc4ccc(C#N)c(Cl)c4)C3(C)C)cc2)C(C)(C)C)cc1 (some centres unmarked) , please.
< 50 nM

# get_value(readout='DC50', item= `Cc1ncsc1-c1ccc([C@H](C)NC(=O)[C@@H]2C[C@@H](O)CN2C(=O)[C@@H](NC(=O)COCCN2CCN(c3ccc(C(=O)N[C@H]4C[C@H](Oc5ccc(C#N)c(Cl)c5)C4)cn3)CC2)C(C)(C)C)cc1` )
> 501 nM

May I ask what DC50 has been recorded for `Cc1ncsc1-c1ccc([C@H](C)NC(=O)[C@@H]2C[C@@H](O)CN2C(=O)[C@@H](NC(=O)CCCCCCCc2ccc(C(=O)N[C@H]3C(C)(C)[C@H](Oc4ccc(C#N)c(Cl)c4)C3(C)C)cc2)C(C)(C)C)cc1` ?
< 50 nM

Can you look up the measured DC50 of `Cc1ncsc1-c1ccc([C@H](C)NC(=O)[C@@H]2C[C@H](F)CN2C(=O)[C@@H](NC(=O)COCCN2CCN(c3ccc(C(=O)N[C@H]4C(C)(C)[C@H](Oc5ccc(C#N)c(Cl)c5)C4(C)C)cn3)CC2)C(C)(C)C)cc1` for me?
> 501 nM

Turning to the following molecule.
# input molecule: `Cc1ncsc1-c1ccc([C@H](C)NC(=O)[C@@H]2C[C@@H](O)CN2C(=O)[C@@H](NC(=O)CN2CCN(CCC3CCN(c4ccc(C(=O)N[C@H]5C(C)(C)[C@H](Oc6ccc(C#N)c(Cl)c6)C5(C)C)cn4)CC3)CC2)C(C)(C)C)cc1` ; wanted: its DC50
< 50 nM

###

# TARGET_ENTITY: Androgen Receptor (Homo sapiens, UniProt P10275)
# Construct: endogenous in cells; host or cells: VCaP cells
# TEST_SUMMARY: Androgen Receptor ELISA assay (PathScan AR ELISA) in VCaP cells: AR degradation, Dmax and DC50
# Assay type: cell-based
# APPLIED_CONDITIONS: VCaP, VCaP cells; Table 35; read-out: VCaP Dmax (%)
# Description: 1. Androgen Receptor ELISA Assay. The protocols used with VCaP cells are described below. The androgen receptor ELISA assay was performed using PathScan AR ELISA (Cell Signaling Catalog #12850) according to the following assay steps: […]
Measured Dmax, listed per entry for reference.

Look over these answered cases.
What Dmax value was documented for this compound, `Cc1ncsc1-c1ccc(CNC(=O)[C@@H]2C[C@@H](O)CN2C(=O)[C@@H](NC(=O)COCCCOCCCCCOc2ccc(N3C(=S)N(c4cccc(C(F)(F)F)c4)C(=O)C3(C)C)cc2)C(C)(C)C)cc1` ?
26 to 50%

Report Dmax for `Cc1ncsc1-c1ccc([C@@H](C)NC(=O)[C@@H]2C[C@@H](O)CN2C(=O)[C@@H](NC(=O)COCCCCCNc2ccc(C(=O)N[C@H]3C(C)(C)[C@H](Oc4ccc(C#N)c(Cl)c4)C3(C)C)cc2)C(C)(C)C)cc1` please.
26 to 50%

Switching to the query record.
Please look up its Dmax: `CC(C)(C)[C@H](NC(=O)CNCCOc1ccc(-c2ccc(C(=O)N[C@H]3C(C)(C)[C@H](Oc4ccc(C#N)c(Cl)c4)C3(C)C)cc2)cc1)C(=O)N1C[C@H](O)C[C@H]1C(=O)NCc1ccc(C#N)cc1`
51 to 70%

###

# TARGET_ENTITY: Androgen Receptor (Homo sapiens, UniProt P10275+P40337, T878A)
# Construct: Compounds have been evaluated in this assay in LNCaP and/or VCaP cells utilizing similar protocols; endogenous in cells; host or cells: LNCaP cells
# Sequence (P10275 whole entry T878A): as the sequence (P10275 whole entry) above, with T878A counted along it
# Sequence (P40337 whole entry): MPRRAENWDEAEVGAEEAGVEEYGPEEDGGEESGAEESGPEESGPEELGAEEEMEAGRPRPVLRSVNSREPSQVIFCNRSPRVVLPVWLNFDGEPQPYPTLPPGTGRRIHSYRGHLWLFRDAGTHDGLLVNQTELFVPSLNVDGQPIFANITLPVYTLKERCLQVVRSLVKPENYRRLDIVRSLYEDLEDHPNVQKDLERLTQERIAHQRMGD
# Sequence (Q15369 whole entry partner): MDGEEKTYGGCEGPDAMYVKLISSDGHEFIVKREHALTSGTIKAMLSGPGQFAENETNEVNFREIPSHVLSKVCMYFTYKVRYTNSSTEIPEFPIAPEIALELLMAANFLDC
# Sequence (Q15370 whole entry partner): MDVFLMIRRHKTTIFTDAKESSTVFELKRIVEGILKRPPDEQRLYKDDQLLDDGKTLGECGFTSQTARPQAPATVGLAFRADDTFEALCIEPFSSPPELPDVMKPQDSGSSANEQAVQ
# TEST_SUMMARY: Androgen Receptor ELISA assay (PathScan AR ELISA) in LNCaP cells: AR degradation, Dmax and DC50
# Format: cell-based
# APPLIED_CONDITIONS: highest percentage of Androgen Receptor degradation
READOUT_NAME: Dmax

Item `Cc1ncsc1-c1ccc(CNC(=O)[C@@H]2C[C@@H](O)CN2C(=O)[C@@H](NC(=O)C(C)(C)C)C(C)(C)C)c(OCCOCCOCCOc2ccc(N3C(=S)N(c4ccc(C#N)c(C(F)(F)F)c4)C(=O)C3(C)C)cc2)c1` has what recorded Dmax?
51 to 70%

What measured Dmax goes with `Cc1ncsc1-c1ccc(CNC(=O)[C@@H]2C[C@@H](O)CN2C(=O)[C@H](C(C)C)N2Cc3ccccc3C2=O)c(OCCO[C@@H]2CCC[C@@H]2OCCOc2ccc(N3C(=S)N(c4ccc(C#N)c(C(F)(F)F)c4)C(=O)C3(C)C)cc2)c1` ?
26 to 50%

Reported Dmax for `CC(=O)N[C@H](C(=O)N1C[C@H](O)C[C@H]1C(=O)NCc1ccc(-c2scnc2C)cc1OCCOCCOCCOc1ccc(N2C(=S)N(c3ccc(C#N)c(C(F)(F)F)c3)C(=O)C2(C)C)cc1)C(C)(C)C` : what is it?
51 to 70%

Which Dmax value belongs to `Cc1ncsc1-c1ccc(CNC(=O)[C@@H]2C[C@@H](O)CN2C(=O)[C@@H](NC(=O)COCCOCCOCCOCCOCCOCCOc2ccc(N3C(=S)N(c4ccc(C#N)c(C(F)(F)F)c4)C(=O)C3(C)C)cc2)C(C)(C)C)cc1` ?
> 71%

Recorded Dmax for `Cc1ncsc1-c1ccc(CNC(=O)[C@@H]2C[C@@H](O)CN2C(=O)[C@@H](NC(=O)c2ccc(OCCCCOc3ccc(N4C(=S)N(c5ccc(C#N)c(C(F)(F)F)c5)C(=O)C4(C)C)cc3)cc2)C(C)(C)C)cc1` , please?
26 to 50%

Quick check: Dmax of `Cc1ncsc1-c1ccc(CNC(=O)[C@@H]2C[C@@H](O)CN2C(=O)[C@@H](NC(=O)COCCOCCCCCOc2ccc(N3C(=S)N(c4ccc(C#N)c(C(F)(F)F)c4)C(=O)C3(C)C)cc2)C(C)(C)C)cc1` ?
> 71%

Looking for the measured Dmax of `Cc1ncsc1-c1ccc(CNC(=O)[C@@H]2C[C@@H](O)CN2C(=O)[C@H](C(C)C)N2Cc3ccccc3C2=O)c(OCCOCCOCCCCOCCCCOCCOCCOc2ccc(N3C(=S)N(c4ccc(C#N)c(C(F)(F)F)c4)C(=O)C3(C)C)cc2)c1` , can you help?
> 71%

Recorded Dmax of `Cc1ncsc1-c1ccc(CNC(=O)[C@@H]2C[C@@H](O)CN2C(=O)[C@@H](NC(=O)COCCCOCCCOc2ccc(N3C(=S)N(c4ccc(C#N)c(C(F)(F)F)c4)C(=O)C3(C)C)cc2)C(C)(C)C)cc1` , please.
51 to 70%

For `Cc1ncsc1-c1ccc(CNC(=O)[C@@H]2C[C@@H](O)CN2C(=O)[C@@H](NC(=O)CCCOCCOc2ccc(-c3ccc(N4C(=S)N(c5ccc(C#N)c(C(F)(F)F)c5)C(=O)C4(C)C)cc3)cc2)C(C)(C)C)cc1` , what is its reported Dmax?
> 71%

Would you kindly share the measured Dmax for `Cc1ncsc1-c1ccc(CNC(=O)[C@@H]2C[C@@H](O)CN2C(=O)[C@@H](NC(=O)CCc2ccc(OCCOc3ccc(N4C(=S)N(c5ccc(C#N)c(C(F)(F)F)c5)C(=O)C4(C)C)cc3)cc2)C(C)(C)C)cc1` ?
> 71%

Further cases:
Fill in: Dmax of `CC(=O)N[C@@H](C)C(=O)N1C[C@H](O)C[C@H]1C(=O)NCc1ccc(-c2scnc2C)cc1OCCOCCOCCOc1ccc(N2C(=S)N(c3ccc(C#N)c(C(F)(F)F)c3)C(=O)C2(C)C)cc1` is ___
< 25%

Param item = `Cc1ncsc1-c1ccc(CNC(=O)[C@@H]2C[C@@H](O)CN2C(=O)[C@H](C(C)C)N2Cc3ccccc3C2=O)c(OCCOCCOCCCCOCCOCCOc2ccc(N3C(=S)N(c4ccc(C#N)c(C(F)(F)F)c4)C(=O)C3(C)C)cc2)c1` ; retrieve measured Dmax.
26 to 50%
